- Species on record: Mus musculus
- experiment.description: The compound was tested for antidepressant activity by its ability to reverse tetrabenazine induced ptosis in mice, perorally
- Assay type: functional
- condition.details: po
readout: log10 ED50 (log10 of the value in mg/kg)

• O=S1(=O)c2ccccc2Oc2cccnc21 = 1.08
• c1ccc2c(c1)Oc1cccnc1S2 = 0.90
• O=S1(=O)c2ccc(Br)cc2Oc2cccnc21 = 1.18
• O=S1(=O)c2ccc(Cl)cc2Oc2cccnc21 = 1.26
• O=[N+]([O-])c1ccc2c(c1)Oc1cccnc1S2(=O)=O = 1.00
• O=S1(=O)c2ccc(C(F)(F)F)cc2Oc2cccnc21 = 0.00
• O=S1(=O)c2ccc(NO)cc2Oc2cccnc21 = 0.30
• FC(F)(F)c1ccc2c(c1)Oc1cccnc1S2 = 1.20
• CN(C)CCCN1c2ccccc2CCc2ccccc21 = 0.30
